Listed binders paired with reported MFI at 0.16 nM
Target system: human delta-like ligand 3 (DLL3) on SHP77 cells (human) (UniProt Q9NYJ7)
Sequence (Q9NYJ7 27-618, stated change not applied): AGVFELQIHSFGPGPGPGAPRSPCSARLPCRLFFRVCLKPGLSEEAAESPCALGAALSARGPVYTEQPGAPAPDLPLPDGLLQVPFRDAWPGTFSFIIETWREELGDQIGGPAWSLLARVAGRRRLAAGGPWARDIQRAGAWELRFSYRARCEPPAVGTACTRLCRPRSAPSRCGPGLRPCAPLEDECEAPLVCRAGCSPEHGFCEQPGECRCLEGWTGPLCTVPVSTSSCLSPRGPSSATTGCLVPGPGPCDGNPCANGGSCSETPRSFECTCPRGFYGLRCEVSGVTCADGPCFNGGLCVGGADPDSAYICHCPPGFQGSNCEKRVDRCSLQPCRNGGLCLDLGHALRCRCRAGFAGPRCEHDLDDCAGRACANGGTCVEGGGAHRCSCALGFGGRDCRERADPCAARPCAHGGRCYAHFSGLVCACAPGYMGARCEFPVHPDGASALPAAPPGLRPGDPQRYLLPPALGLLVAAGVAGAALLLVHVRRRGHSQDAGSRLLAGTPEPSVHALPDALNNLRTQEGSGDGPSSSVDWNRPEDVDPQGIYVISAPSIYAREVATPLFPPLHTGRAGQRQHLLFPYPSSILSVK
Test name: FACS on SHP77 cells
Write it as a number; the unit MFI goes unstated.

Solved cases below.
Binder	MFI at 0.16 nM [MFI]
BI3 (antibody, human IgG1, kappa, V domains shown) VH: QVQLVQSGAEVKKPGASVKVSCKASGYTFTSYYVHWVRQAPGQGLEWMVIINPGGGTTSYAQKFLGRVTMTRDTSTNTVYMELKSLRSEDTAVYYCARGEAVTGNYFYYGMDVWGQGTTVTVSS VL: DIQMTQSPSAMSASVGDRVTITCRASQGISNYLVWFQQKPGKAPKRLIYAVSSLYSGVPSRFSGSGSGTEFTLTISSLQPEDFATYYCLQHDSYPYTFGQGTKLEIKR	148
Hab009VL3aVH1-hFc (Fc fusion, part only; not given: Linker and human IgG1 Fc, not shown: a dimerising Fc or GST) scFv, part: DIVMTQSPLSLPVTPGEPASISCRASQTISDYLHWYLQKSHQSPQLLIKYASQSISGVPDRFSGSGSGTDFTLKISRVEAEDVGVYYCQQGHSFPLTFGQGTKLEIKEVQLVQSGAEVKKPGASVKVSCKASGYTFTSYWMHWVRQAPGQRLEWMGTIYPGNSDTRYNQKFKDRVTITADTSASTAYMELSSLRSEDTAVYYCTRSYDYGDLDYWGQGTTVTVSS	396

For the next question, use this binder.
// field: MFI at 0.16 nM; key: Hab015VL5VH1a-hFc (scFv, part only; not given: scFv linker and human IgG1 Fc, V domains shown, not shown: another chain or arm of the molecule; a dimerising Fc or GST; small tags and cut ends) VL: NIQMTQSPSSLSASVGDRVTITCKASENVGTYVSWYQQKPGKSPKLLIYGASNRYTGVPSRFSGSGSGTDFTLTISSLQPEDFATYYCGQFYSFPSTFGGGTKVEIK VH: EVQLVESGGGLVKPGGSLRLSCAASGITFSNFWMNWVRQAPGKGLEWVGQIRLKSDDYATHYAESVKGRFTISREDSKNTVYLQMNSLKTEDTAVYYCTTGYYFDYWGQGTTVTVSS ; value = 343
